ASSAY COMMENT: Oral bioavailability in Sprague-Dawley rat at 4 mg/kg
Format: ADME, organism-based
CONDITION LABEL: in vivo
RECORDED ENDPOINT: bioavailability (%)

Previously resolved entries follow.
COMPOUND: Cc1ccc(NS(C)(=O)=O)c(C(=O)N2CCCC[C@H]2c2cc3nc(C)c(C)cn3n2)c1
RESULT UNIT: %
bioavailability: 86

COMPOUND: Cc1ccc(NS(C)(=O)=O)c(C(=O)N2CCCC[C@H]2c2cc3nc(C4CC4)cc(C)n3n2)c1
RESULT UNIT: %
bioavailability: 42

A: Cc1cn2nc([C@@H]3CCCCN3C(=O)c3cc(Cl)ccc3NS(C)(=O)=O)cc2nc1N1CC[C@H](N)C1 [PRESATOVIR]
B: Cc1ccc(NS(C)(=O)=O)c(C(=O)N2CCCC[C@H]2c2cc3nc(C)c(C)c(C)n3n2)c1
C: Cc1cn2nc([C@@H]3CCCCN3C(=O)c3cc(Cl)ccc3NS(C)(=O)=O)cc2nc1N1CC[C@@H](O)C1
# input Sort low-to-high on bioavailability, please. # the answer lists labels in the order requested
# output B, A, C

a: Cc1cn2nc([C@@H]3CCCCN3C(=O)c3cc(Cl)ccc3NS(C)(=O)=O)cc2nc1N1CC(O)C1
b: Cc1[nH]c2cc([C@@H]3CCCCN3C(=O)c3ccccc3NS(C)(=O)=O)nn2c(=O)c1C
# input I'd appreciate it if you could identify which of a and b has the greater bioavailability. // caller expects the label of the chosen entry
# output a
(a: 42%, b: 1.5%)

I: Cc1cn2nc([C@@H]3CCCCN3C(=O)c3ccccc3NS(C)(=O)=O)cc2nc1C
II: Cc1cn2nc([C@@H]3CCCCN3C(=O)c3cc(Cl)ccc3NS(C)(=O)=O)cc2nc1N1CC(N)C1
# input # query: argmin of bioavailability over I and II // caller expects the label of the chosen entry
# output I
